Target: GABA-A receptor; anion channel
Assay: Binding affinity against GABA-A benzodiazepine receptor
QUANTITY_MEASURED: Ki (nM)

Quick one: give measured Ki for Oc1nc2c(n1-c1nc3ccccc3o1)CCCC2
56

[A] Oc1nc2ccc(F)cc2n1-c1nc2ccccc2o1
[B] Cc1ccc2nc(-n3c(O)nc4ccccc43)oc2c1
[C] Oc1nc2ccccc2n1-c1nc2cc(F)ccc2o1
[D] O=C1NC2CCCCCC2N1c1nc2cc(F)cc(F)c2o1 (configuration not stated)
[E] Oc1nc2cc(F)ccc2n1-c1nc2ccccc2o1
List the 5 entries from lowest Ki to highest Ki value. Output the labels ranked as instructed.
D, E, A, C, B
(D: 7 nM, E: 32 nM, A: 58 nM, C: 162 nM, B: 303 nM)

====

Target: GABA-A receptor; anion channel
Experiment: Binding affinity against GABA-A benzodiazepine receptor
Format: protein-complex assay
pKi: −log10 of the molar value.
QUANTITY_MEASURED: pKi

Quick one: give measured pKi for COc1ccc2nc(-n3c(O)nc4c3CCCC4)oc2c1
6.62

[I] O=C1NC2CCCCCC2N1c1nc2cc(F)ccc2o1 (stereo not drawn)
[II] Oc1nc2ccccc2n1-c1nc2ncccc2o1
I'd appreciate it if you could identify which of I and II has the greater pKi. Provide the label of your selected option as the answer.
I
(I: 8.30, II: 7.36)

====

Target: GABA-A receptor; anion channel
Experiment: Binding affinity against GABA-A benzodiazepine receptor
Format: protein-complex assay
QUANTITY_MEASURED: Ki (µM)

Some solved cases for reference:
Quick one: give measured Ki for Oc1nc2ccccc2n1-c1nc2ccc(F)cc2o1
0.089

Quick one: give measured Ki for COc1ccc2oc(N3C(=O)NC4CCCCCC43)nc2c1 (stereo unspecified)
0.025

Quick one: give measured Ki for Cc1ccc2oc(N3C(=O)NC4CCCCCC43)nc2c1 (stereo unspecified)
0.015

[P] Oc1nc2c(n1-c1nc3ccc(F)cc3o1)CCCC2
[Q] Oc1nc2ccccc2n1-c1nc2ccc(F)c(F)c2o1
[R] O=C1NC2CCCCCC2N1c1nc2cc(F)c(F)cc2o1 (stereo unspecified)
List the 3 entries from lowest Ki to highest Ki value. Output the labels ranked as instructed.
Q, P, R
(Q: 0.02 µM, P: 0.047 µM, R: 0.087 µM)

====

Target: GABA-A receptor; anion channel
Assay: Binding affinity against GABA-A benzodiazepine receptor
pKi: −log10 of the molar value.
QUANTITY_MEASURED: pKi

Some solved cases for reference:
Report the value of pKi obtained on GABA-A receptor; anion channel for COc1ccc2oc(-n3c(O)nc4ccccc43)nc2c1 .
7.04

Report the value of pKi obtained on GABA-A receptor; anion channel for COc1ccc2oc(-n3c(O)nc4c3CCCC4)nc2c1 .
7.09

[1] O=C1NC2CCCCCC2N1c1nc2ncccc2o1 (centres undefined)
[2] Oc1nc2cc(F)ccc2n1-c1nc2cccc(F)c2o1
I'd appreciate it if you could identify which of 1 and 2 has the greater pKi. Provide the label of your selected option as the answer.
2
